Molecular target: Cyclin-dependent kinase 6 (Homo sapiens, UniProt Q00534)
Sequence (Q00534 whole entry): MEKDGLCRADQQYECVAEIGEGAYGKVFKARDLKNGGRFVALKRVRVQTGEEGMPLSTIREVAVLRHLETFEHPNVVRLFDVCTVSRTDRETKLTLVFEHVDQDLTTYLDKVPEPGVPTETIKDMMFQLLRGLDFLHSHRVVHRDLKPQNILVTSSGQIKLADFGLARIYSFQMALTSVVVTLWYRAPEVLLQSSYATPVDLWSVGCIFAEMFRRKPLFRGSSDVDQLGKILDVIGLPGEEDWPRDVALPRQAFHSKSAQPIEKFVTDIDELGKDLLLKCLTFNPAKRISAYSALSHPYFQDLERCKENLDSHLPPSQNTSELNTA
pIC50: −log10 of the molar value.

MOLECULAR_STRING: CN1CC[C@@H](c2c(O)cc(O)c3c(=O)cc(-c4ccc(C(F)(F)F)cc4Cl)oc23)[C@@H]1CO
pIC50: > 7.00

###

Assay: Inhibition of protein kinase A (unknown origin)
Set-up: species or system Homo sapiens
pIC50: −log10 of the molar value.
REPORTED_METRIC: pIC50

MOLECULAR_STRING: CN1CC[C@H](c2c(O)cc(O)c3c(=O)cc(-c4ccccc4Cl)oc23)[C@H](O)C1
REPORTED_METRIC: pIC50
TEST_RESULT: 3.84 to 3.91
